Attribute: protein stability index
B1: SMG5 (parent)
chain: QEKLQVLMAEGLLPAVKVFLDWLR

Variants of: B1
assayMethodText: protein stability index of a GFP-peptide fusion (GPS, HEK-293T) (PSI 1-6); higher = more stable;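 note: lentivirally expressed fusions sorted by FACS into six bins by GFP to DsRed ratio, PSI derived from sequencing read proportions per bin multiplied by bin number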
experimentalSetup: c terminus: a fixed tail appended
Field format: numeric only.

Sample records with protein stability index:
F19W | 1.89
L7V | 2.07
L7M | 1.64
R24L | 2.96
L12W | 1.8
L20T | 3.12
V18S | 3.52
M8S | 1.31

For the next question, use this variant.
(Q) Fill in: protein stability index of W22Y is ___
(A) 2.13

These measurements were taken from the supplement of paper PMC10567573.
